All figures here come from PubChem BioAssay (NCI).

- System: SF-295 CNS
- test-method-notes: NCI tumour cell line growth inhibition, 48 h
value-kind: TGI (µM)
One number for each entry, in µM.

{"smi": "CN1CN(c2ccccc2)C2(CCN(Cc3nc4ccccc4s3)CC2)C1=O", "TGI [µM]": 32}

Below are some compounds; for each one, tell me its TGI.
1. COc1ccc(-c2cnoc2-c2ccc(OC)cc2O)cc1
2. N#Cc1c(-c2ccccc2)n([O-])c2ccccc2[n+]1=O
3. CS(=O)(=O)Nc1ccc(Nc2cc[nH]c3ccc4nccc4c23)cc1
4. CN1CCN(Cc2ccc(NC(=O)c3cnc(F)c(C#Cc4cnc(N)c5ncccc45)c3)cc2C(F)(F)F)CC1
5. O=Cc1ccc(-c2nccc3c2[nH]c2ccccc23)o1
6. CCN(CCCNC(=O)Cc1cc(=O)oc2cc(N(C)C)ccc12)CCNc1ccnc2cc(Cl)ccc12

Reply:
1: 14.8; 2: 56.4; 3: 62.2; 4: 9.24; 5: 51.2; 6: 27.6

====

- System: LOX IMVI melanoma
- test-method-notes: NCI tumour cell line growth inhibition, 48 h
value-kind: GI50

Reference set, count: 3
{"compound": "CCCCC/C=C/C(=O)CCc1ccc(O)c(OC)c1", "GI50": "1600 nM"}
{"compound": "O=C(C(Br)C(Br)c1ccccc1)C(Br)C(Br)c1ccccc1 (stereo not given)", "GI50": "633 nM"}
{"compound": "Cc1ccc(NS(=O)(=O)c2ccc(-c3cnc(C4CC4)o3)cc2)cc1C", "GI50": "524 nM"}

Below are some compounds; for each one, tell me its GI50.
1. COC(=O)c1c2c(c(C)[n+]([O-])c1C)C(=O)C(NCc1cccc(Cl)c1)=CC2=O
2. Cc1ccc2c(NCCCN(C)C)c3c(C)nn(C)c3nc2c1
3. O=C(NNC(=O)C1CCN(S(=O)(=O)c2ccc(-c3ccccc3)cc2)CC1)c1ccc(C(F)(F)F)cc1
4. COc1cc(-c2cncn2-c2ccc(-c3nc4ccc(F)cc4s3)cc2)ccc1F

Reply:
1: 1760 nM; 2: 2220 nM; 3: > 50000 nM; 4: 35900 nM

====

- Tested on: OVCAR-3 ovarian
- test-method-notes: NCI tumour cell line growth inhibition, 48 h
value-kind: GI50

Reference set, count: 5
{"molecule": "CNCCCNc1c2cc(OC)ccc2nc2cccc([N+](=O)[O-])c12", "GI50": "0.234 µM"}
{"molecule": "CCCCSSC(=S)N(CC)CC", "GI50": "20.4 µM"}
{"molecule": "O=[N+]([O-])c1cc([N+](=O)[O-])c(N2CCCC2)cc1NN=C(c1ccc(O)cc1)c1ccc(O)cc1", "GI50": "2.41 µM"}
{"molecule": "CC1=C(C(=O)Nc2ccc(Cl)c(Cl)c2)C(c2ccccc2Cl)NC(=S)N1 (stereo unspecified)", "GI50": "10.5 µM"}
{"molecule": "NS(=O)(=O)c1ccc(Nc2ncc(-c3ccccc3)o2)cc1", "GI50": "> 25 µM"}

We next turn to a different molecule, shown below.
Ask: # returns recorded GI50 (system: OVCAR-3 ovarian) for Nc1[nH]c(=O)nc2c1cnn2Cc1ccccc1
Reply: > 100 µM

====

For each entry below, report its GI50 value.
- Tested on: OVCAR-4 ovarian
- test-method-notes: NCI tumour cell line growth inhibition, 48 h

Reference set, count: 3
{"compound": "CCCCSSC(=S)N(CC)CC", "assay-value": "16.9 µM"}
{"compound": "COC(=O)[C@@H]1CCCN1C(=O)[C@@H]1CCCN1C(=O)[C@H](Cc1ccccc1)NC(=S)Nc1cc(C(F)(F)F)cc(C(F)(F)F)c1", "assay-value": "4.29 µM"}
{"compound": "CC1=C(C(=O)Nc2ccc(Cl)c(Cl)c2)C(c2ccccc2Cl)NC(=S)N1 (configuration not stated)", "assay-value": "23.6 µM"}

Below are some compounds; for each one, tell me its GI50.
1. COc1cc(-c2cc(/C=C3\C(=O)Nc4ccc(Cl)cc43)[nH]n2)cc(OC)c1OC
2. CN1CCN(Cc2ccc(NC(=O)c3cnc(F)c(C#Cc4cnc(N)c5ncccc45)c3)cc2C(F)(F)F)CC1
3. CCOC(=O)c1c2c(n(Cc3ccc(Cl)cc3Cl)c1C)-c1nc(Cc3ccccc3)[nH]c1C(=O)C2=O
4. Cc1cc(I)cc(CN(C)CCN(C)C)c1O
5. C=CCOC1=CC(=O)c2ccccc2C1=O
6. O=CC(NC(=O)N(CCCl)N=O)C(O)C(O)C(O)CO (configuration not stated)
7. COc1ccc(/C=C2\CS(=O)(=O)C/C(=C\c3ccc(OC)cc3)C2=O)cc1
8. CN1CCN(Cc2ccc(NC(=O)c3nc4ccc5[nH]ncc5c4c4c3CCCC4)cc2C(F)(F)F)CC1

Reply:
1: 5.11 µM; 2: 0.195 µM; 3: 1.87 µM; 4: 52.2 µM; 5: 1.57 µM; 6: > 625 µM; 7: 3.19 µM; 8: 0.861 µM

Below are some compounds; for each one, tell me its GI50.
1. NS(=O)(=O)N(c1cc(C(F)(F)F)cc(C(F)(F)F)c1)C1CCN(Cc2ccc(C(F)(F)F)cc2)CC1
2. CN(CCO)C1CCN(c2ccc(Nc3ncc4c5ccnc(F)c5n(C5CCCC5)c4n3)nc2)CC1
3. c1cc(N2CCN(c3ccc(C4=NCCN4)cc3)CC2)ccc1C1=NCCN1
4. NS(=O)(=O)c1ccc(Nc2ncc(-c3ccccc3)o2)cc1
5. CCC(CC)COC(=O)[C@H](C)N[P@](=O)(OC[C@H]1O[C@@](C#N)(c2ccc3c(N)ncnn23)[C@H](O)[C@@H]1O)Oc1ccccc1

Reply:
["6.89 µM", "11.2 µM", "> 100 µM", "> 25 µM", "3.02 µM"]

Below are some compounds; for each one, tell me its GI50.
1. Oc1ccc(/C=C/c2ccc(O)cc2)cc1
2. COc1ccc(-c2cc3c(OC)c(OC)c(OC)cc3oc2=O)cc1
3. COc1ccc2c(c1)CC[C@@H]1[C@@H]2CC[C@]2(C)C(c3ccsc3)=C(/C=C/C(=O)c3ccccc3)C[C@@H]12
4. COc1cccc(-n2ncc3c(N/N=C/c4ccc(F)cc4)ncnc32)c1

Reply:
8.78 µM
7.6 µM
> 100 µM
6.55 µM
